Target: GSK3β (Homo sapiens, UniProt P49841)
Sequence (P49841 whole entry, species assumed): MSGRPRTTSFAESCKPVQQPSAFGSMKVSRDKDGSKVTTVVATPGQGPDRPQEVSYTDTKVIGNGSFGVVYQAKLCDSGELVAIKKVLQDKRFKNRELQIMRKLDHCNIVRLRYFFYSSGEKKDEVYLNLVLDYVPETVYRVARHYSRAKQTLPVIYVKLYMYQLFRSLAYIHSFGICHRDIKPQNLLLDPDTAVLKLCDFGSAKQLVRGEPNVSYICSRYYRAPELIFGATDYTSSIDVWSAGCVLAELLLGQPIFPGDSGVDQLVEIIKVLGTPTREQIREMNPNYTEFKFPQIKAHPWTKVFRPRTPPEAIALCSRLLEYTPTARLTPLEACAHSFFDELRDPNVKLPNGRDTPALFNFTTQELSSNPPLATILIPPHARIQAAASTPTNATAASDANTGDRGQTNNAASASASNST
Assay: GSK3beta assay (SPA, biotinylated phosphorylated CREB peptide, ATP-P33)
Assay type: biochemical
Conditions: −log IC50 (M); given as ranges (>8; 7-8; <7); read-out: pIC50 (GSK3beta) (converted)
Procedure: GSK3beta assays were performed at room temperature in a 100 μl reaction volume of 25 mM Tris (ph 7.4) containing 10 mM MgCl2.6H2O 1 mM DTT, 0.1 mg/ml BSA, 5% glyceol and containing 5.7 ng/μl GSK3β, 5 μM biotinylated phosphorylated CREB peptide, 1 μM APT, 0.85 μCi/ml ATP-P^33 and a suitable amount of a test compound of formula (I). After one hour, the reaction was terminated by adding 70 μl of Stop mix (0.1 mM APT, 5 mg/ml streptavidin coated PVT SPA bead pH 11.0). […]
READOUT: IC50

| SMILES_REPRESENTATION | SYSTEM | IC50 |
| --- | --- | --- |
| CC(=O)NCc1cccc(-n2nnc3cnc(Nc4cccc(S(=O)(=O)NCCO)c4)nc32)c1 | GSK3β (Homo sapiens, UniProt P49841) | 1e-08 to 1e-07 M |
| Fc1cccc(-n2nnc3cnc(Nc4ccc(Cl)nc4)nc32)c1 | GSK3β (Homo sapiens, UniProt P49841) | < 1e-08 M |
| CC(=O)Nc1cccc(Nc2ncc3nnn(-c4cccc(F)c4)c3n2)c1 | GSK3β (Homo sapiens, UniProt P49841) | < 1e-08 M |

Input: Quick one: IC50 of NC(=O)c1cccc(Nc2ncc3nnn(-c4cccc(C(N)=O)c4)c3n2)c1 ?
Output: < 1e-08 M

Input: Need IC50, item COCc1cccc(Nc2ncc3nnn(-c4cccc(CCO)c4)c3n2)c1
Output: < 1e-08 M

Input: Consider the compound COCc1cccc(-n2nnc3cnc(Nc4cccc(C(C)=O)c4)nc32)c1 and give its measured IC50.
Output: < 1e-08 M

Input: Recorded IC50 for NC(=O)CNC(=O)c1cccc(Nc2ncc3nnn(-c4cccc(F)c4)c3n2)c1 , please?
Output: < 1e-08 M

Input: Given the compound NCCc1ccc(Nc2ncc3nnn(-c4cccc(F)c4)c3n2)cc1 , what is its reported IC50?
Output: 1e-08 to 1e-07 M

Input: Can you share its IC50? I mean this compound: NS(=O)(=O)c1cccc(Nc2ncc3nnn(-c4cccc(F)c4)c3n2)c1
Output: < 1e-08 M

Input: Form field: reported IC50 of COCCOc1cccc(Nc2ncc3nnn(-c4cccc(CCO)c4)c3n2)c1
Output: < 1e-08 M

Input: Request the reported IC50 associated with CS(=O)(=O)Nc1cccc(Nc2ncc3nnn(-c4cccc(F)c4)c3n2)c1
Output: < 1e-08 M

Input: Endpoint output: IC50 of N#Cc1cccc(Nc2ncc3nnn(-c4cccc(F)c4)c3n2)c1 . Value?
Output: < 1e-08 M

Input: Please look up its IC50: NC(=O)Cc1cccc(Nc2ncc3nnn(-c4cccc(F)c4)c3n2)c1
Output: < 1e-08 M
